assay: Inhibition of LPS-induced IL-1beta expression in human U-937 cells preincubated for 1 hr followed by LPS addition and measured after 24 hrs by ELISA; format: functional, cell-based
pIC50: −log10 of the molar value.
Param threshold (5) applies to pIC50; output class 1 when value >= threshold, class 0 when value < threshold.

C/C(=C\CC/C(C)=C/CC[C@@H]1[C@@]2(C)CCC(=O)C(C)(C)[C@H]2CC[C@@]1(C)O)CC/C=C(\C)C(=O)OCc1cn(C[C@@H]2O[C@H](n3ccc(=O)[nH]c3=O)[C@H]3OC(C)(C)O[C@H]32)nn1: class 0
C/C(=C\CC/C(C)=C/CC[C@@H]1[C@@]2(C)CCC(=O)C(C)(C)[C@H]2CC[C@@]1(C)O)CC/C=C(\C)C(=O)OCc1cn(-c2ccc(F)c(Cl)c2)nn1: class 0
C/C(=C\CC/C(C)=C/CC[C@@H]1[C@@]2(C)CCC(=O)C(C)(C)[C@H]2CC[C@@]1(C)O)CC/C=C(\C)C(=O)OCc1cn(-c2ccc(Cl)cc2)nn1: class 0

// switching to the query compound
Inquiry: Quick check: does C[C@]12C=CC(=O)C=C1CC[C@@H]1[C@@H]2[C@@H](O)C[C@@]2(C)[C@H]1CC[C@]2(O)C(=O)CO have pIC50 greater than or equal to 5?
Reply text: class 1
